Data origin: patent US11566007B2

Tested on: NCI-H358 cells (K-Ras G12C)
Test: Potency assay: pERK in NCI-H358 cells
Assay type: cell-based, human
Assay context: Homo sapiens, NCI-H358; H358 KRAS G12C; read-out: pERK EC50
pEC50: −log10 of the molar value.

Compound: CCn1c(-c2cccnc2[C@H](C)OC)c2c3cc(ccc31)-c1cccc(c1)C[C@H](NC(=O)[C@H](C(C)C)N(C)C(=O)[C@H]1CCN(C(=O)C#CCN(C)C)C1)C(=O)N1CCC[C@H](N1)C(=O)OCC(C)(C)C2 (atropisomer, axis not shown)
pEC50: > 5.30
--
Compound: C=CC(=O)N1CC2CCC1CN2C(=O)N(C)[C@H](C(=O)N[C@H]1Cc2nc(cs2)-c2ccc3c(c2)c(c(-c2cccnc2[C@H](C)OC)n3CC)CC(C)(C)COC(=O)[C@@H]2CCCN(N2)C1=O)C(C)C
pEC50: > 5.30
--
Compound: C=CC(=O)N1CC[C@H](C(=O)N(C)[C@H](C(=O)N[C@H]2Cc3cc(O)cc(c3)-c3ccc4c(c3)c(c(-c3ccncc3)n4C(C)(C)C#N)CC(C)(C)COC(=O)[C@@H]3CCCN(N3)C2=O)C(C)C)C1
pEC50: > 5.30
--
Compound: C=CC(=O)N1CC2(CCN2C(=O)N(C)[C@H](C(=O)N[C@H]2Cc3nc(cs3)-c3ccc4c(c3)c(c(-c3cccnc3[C@H](C)OC)n4CC)CC(C)(C)COC(=O)[C@@H]3CCCN(N3)C2=O)C(C)C)C1 (atropisomer, axis not shown)
pEC50: > 5.30
--
Compound: C=CC(=O)N(C)CCN1CCN(C(=O)N(C)[C@H](C(=O)N[C@H]2Cc3nc(cs3)-c3ccc4c(c3)c(c(-c3cccnc3[C@H](C)OC)n4CC)CC(C)(C)COC(=O)[C@@H]3CCCN(N3)C2=O)C(C)C)CC1 (atropisomer, axis not shown)
pEC50: > 5.30
--
Compound: CCn1c(-c2cccnc2[C@H](C)OC)c2c3cc(ccc31)-c1csc(n1)C[C@H](NC(=O)[C@H](C(C)C)N(C)C(=O)N1CCC3(CC1)CN(C(=O)/C=C/C(F)F)C3)C(=O)N1CCC[C@H](N1)C(=O)OCC(C)(C)C2 (atropisomer, axis not shown)
pEC50: > 5.30
--
Compound: C=C(F)C(=O)N1CC(N(C)C(=O)N(C)[C@H](C(=O)N[C@H]2Cc3nc(cs3)-c3ccc4c(c3)c(c(-c3cccnc3[C@H](C)OC)n4CC)CC(C)(C)COC(=O)[C@@H]3CCCN(N3)C2=O)C(C)C)C1 (atropisomer, axis not shown)
pEC50: > 5.30
--
Compound: CCn1c(-c2cccnc2[C@H](C)OC)c2c3cc(ccc31)-c1csc(n1)C[C@H](NC(=O)[C@H](C)N(C)C(=O)[C@H]1CCN(C(=O)C#CC(C)(C)N3CCC3)C1)C(=O)N1CCC[C@H](N1)C(=O)OCC(C)(C)C2 (atropisomer, axis not shown)
pEC50: > 5.30
--
Compound: CCn1c(-c2cccnc2[C@H](C)OC)c2c3cc(ccc31)-c1cccc(c1)C[C@H](NC(=O)[C@H](C(C)C)N(C)C(=O)[C@H]1CCN(C(=O)C#CC3(N(C)C)CCOCC3)C1)C(=O)N1CCC[C@H](N1)C(=O)OCC(C)(C)C2 (atropisomer, axis not shown)
pEC50: > 5.30
--
Compound: CCn1c(-c2cncnc2)c2c3cc(ccc31)-c1cccc(c1)[C@@H](OC)[C@H](NC(=O)[C@H](C(C)C)N(C)C(=O)[C@H]1CCN(C(=O)C#CCN3CCOCC3)C1)C(=O)N1CCC[C@H](N1)C(=O)OCC(C)(C)C2
pEC50: > 5.30
--
Compound: C=CC(=O)N1CC[C@H](C(=O)N(C)[C@H](C(=O)N[C@H]2Cc3nc(cs3)-c3ccc4c(c3)c(c(-c3cccnc3[C@H](C)OC)n4CC(F)(F)F)CC(C)(C)COC(=O)[C@@H]3CCCN(N3)C2=O)C(C)C)C1 (atropisomer, axis not shown)
pEC50: > 5.30
--
Compound: C=CC(=O)N1CC[C@H](C(=O)N(C)[C@H](C(=O)N[C@H]2Cc3cccc(n3)-c3ccc4c(c3)c(c(-c3cccnc3[C@H](C)OC)n4CC)CC(C)(C)COC(=O)[C@@H]3CCCN(N3)C2=O)C(C)C)C1 (atropisomer, axis not shown)
pEC50: > 5.30
--
Compound: CCn1c(-c2cccnc2[C@H](C)OC)c2c3cc(ccc31)-c1csc(n1)C[C@H](NC(=O)C[C@@H](C)OC1CN(C(=O)C#CC(C)(C)N(C)C)C1)C(=O)N1CCC[C@H](N1)C(=O)OCC(C)(C)C2 (atropisomer, axis not shown)
pEC50: > 5.30
--
Compound: C=CC(=O)N1CC2(CCN2C(=O)N(C)[C@H](C(=O)N[C@H]2Cc3cccc(c3)-c3ccc4c(c3)c(c(-c3cccnc3[C@H](C)OC)n4CC)CC(C)(C)COC(=O)[C@@H]3CCCN(N3)C2=O)C(C)C)C1 (atropisomer, axis not shown)
pEC50: > 5.30
--
Compound: C=CC(=O)N1CC[C@H](C(=O)N(C)[C@H](C(=O)N[C@H]2Cc3cc(O)cc(c3)-c3ccc4c(c3)c(c(-c3cnccc3COC)n4CC)CC(C)(C)COC(=O)[C@@H]3CCCN(N3)C2=O)C(C)C)C1
pEC50: > 5.30
